Target: TMEM16A (ANO1) (Mus musculus)
Construct: We subcloned the coding region of the cDNA into pEGFP-N3 vector; expressed in transfected cells; host or cells: HEK293 cells
Assay: NFA inhibition of ANO1 current, intracellular application to inside-out patch
Type: cell-based
Details: 140 mM intracellular NaBr; pipette 140 mM Cl^−; read-out: K1/2 of NFA inhibition
pIC50: −log10 of the molar value.
reportedProperty: pIC50

| structureSmilesString | readoutValue |
| --- | --- |
| O=C(O)c1cccnc1Nc1cccc(C(F)(F)F)c1 | 4.41 |

* * *

Target: TMEM16A (ANO1) (Mus musculus, UniProt Q8BHY3)
Construct: We subcloned the coding region of the cDNA into pEGFP-N3 vector; expressed in transfected cells; host or cells: HEK293 cells
Sequence (Q8BHY3 1-956 isoform Q8BHY3-2): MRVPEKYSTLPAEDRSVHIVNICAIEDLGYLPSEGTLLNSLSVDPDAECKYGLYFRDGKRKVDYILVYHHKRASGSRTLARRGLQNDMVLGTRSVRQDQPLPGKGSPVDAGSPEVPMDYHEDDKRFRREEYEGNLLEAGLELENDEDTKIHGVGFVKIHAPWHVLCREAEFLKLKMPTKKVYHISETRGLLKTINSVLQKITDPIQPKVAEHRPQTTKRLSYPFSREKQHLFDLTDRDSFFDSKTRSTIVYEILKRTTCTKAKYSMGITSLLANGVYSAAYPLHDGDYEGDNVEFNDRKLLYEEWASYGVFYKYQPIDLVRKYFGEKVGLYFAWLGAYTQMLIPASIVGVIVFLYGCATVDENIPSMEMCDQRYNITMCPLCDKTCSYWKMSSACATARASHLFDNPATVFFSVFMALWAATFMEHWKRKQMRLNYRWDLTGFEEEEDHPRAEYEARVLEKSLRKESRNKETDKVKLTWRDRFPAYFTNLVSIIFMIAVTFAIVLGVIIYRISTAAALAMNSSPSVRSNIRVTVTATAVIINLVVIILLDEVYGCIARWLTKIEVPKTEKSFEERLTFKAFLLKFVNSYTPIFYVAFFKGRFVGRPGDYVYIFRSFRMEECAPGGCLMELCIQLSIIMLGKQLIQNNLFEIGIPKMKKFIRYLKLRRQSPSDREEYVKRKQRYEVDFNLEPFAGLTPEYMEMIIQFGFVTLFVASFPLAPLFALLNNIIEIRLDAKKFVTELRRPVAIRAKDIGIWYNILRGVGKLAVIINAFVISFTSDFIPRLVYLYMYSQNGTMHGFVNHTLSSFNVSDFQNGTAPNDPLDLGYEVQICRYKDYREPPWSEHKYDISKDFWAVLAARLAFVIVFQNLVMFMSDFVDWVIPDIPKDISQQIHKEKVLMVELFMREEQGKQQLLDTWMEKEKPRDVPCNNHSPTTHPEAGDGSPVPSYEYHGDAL
Assay: Activation of ANO1 current by divalent cations, excised inside-out patch with fast solution exchange
Type: cell-based
Settings: values covering +40 and −40 mV; read-out: K1/2 of ANO1 activation
reportedProperty: EC50

| structureSmilesString | reportedProperty | readoutValue |
| --- | --- | --- |
| [Ca+2] | EC50 | ~0.5 µM |

* * *

Molecular target: TMEM16A (ANO1) (Mus musculus, UniProt Q8BHY3)
Construct: We subcloned the coding region of the cDNA into pEGFP-N3 vector; expressed in transfected cells; host or cells: HEK293 cells
Experiment: Anion permeability of the ANO1 pore, Erev under bi-ionic conditions
Assay type: cell-based
Conditions: Ca^2+-activated current (20 µM); 140 mM extracellular NaCl; anion as intracellular sodium salt 140 mM (HCO3: 130 mM NaHCO3 + 10 mM NaCl); without junction potential correction; averaged
// Erev (bi-ionic potential) lookup, one value per entry

| compound | readoutQualifier | Erev (bi-ionic potential), mV |
| --- | --- | --- |
| N[C@@H](CCC(=O)O)C(=O)[O-].[Na+] [glutamate, Na-glutamate] | < | −80 |
| O=C([O-])O.[Na+] | = | −27.6 |
| O=[N+]([O-])[O-].[Na+] | = | 32.9 |
| [I-].[Na+] | = | 35.9 |
| N#C[S-].[Na+] | = | 62.0 |
| [Br-].[Na+] | = | 18.0 |
